Could you please report measured solubility for the items listed next?
assay: Solubility in phosphate buffered saline buffer of pH 7.4 at 37° C.
Type: physicochemical
condition.details: aqueous buffer, sodium salts, phosphate buffered saline buffer pH 7.4, read-out: Solubility at 37° C. Conc.

The compound COCCCOc1ccnc(C[S+]([O-])c2nc3ccccc3n2S(=O)(=O)c2ccc(OCC(=O)[O-])cc2)c1C.[Na+] (stereo not shown) showed solubility equal to > 30 mg/mL

compound COc1ccc(S(=O)(=O)n2c([S+]([O-])Cc3nccc(OCC(F)(F)F)c3C)nc3ccccc32)cc1C(=O)[O-].[Na+] (stereo not shown) , solubility observed: > 50 mg/mL

Entry Cc1c(OCC(F)(F)F)ccnc1C[S+]([O-])c1nc2ccccc2n1S(=O)(=O)c1ccc(OCC(=O)[O-])c(OCC(=O)[O-])c1.[Na+].[Na+] (stereo not shown) ; solubility = > 50 mg/mL

Kindly note the recorded solubility for Cc1cc(OCC(=O)[O-])cc(C)c1S(=O)(=O)n1c([S+]([O-])Cc2nccc(OCC(F)(F)F)c2C)nc2ccccc21.[Na+] (stereo not shown) , which is > 30 mg/mL

Value of solubility reported for the compound Cc1c(OCC(F)(F)F)ccnc1C[S+]([O-])c1nc2ccccc2n1S(=O)(=O)c1ccc(OCC(=O)[O-])cc1.[Na+] (stereo not shown) is > 50 mg/mL

Measured solubility, Cc1c(OCC(F)(F)F)ccnc1C[S+]([O-])c1nc2ccccc2n1S(=O)(=O)c1cccc(C(=O)O)c1 (stereo not shown) : > 30 mg/mL

Record COc1ccc2c(c1)nc([S+]([O-])Cc1ncc(C)c(OC)c1C)n2S(=O)(=O)c1ccc(OCC(=O)[O-])cc1.[Na+] (stereo not shown) , field solubility: > 30 mg/mL

====

assay: Stability in plasma at 37° C. (gradient HPLC-UV), human plasma
Assay type: in vitro ADME
Please go through the items and note down their half-life.
Note: unit min is implicit; provide only the numeric part.

Given item Cc1c(OCC(F)(F)F)ccnc1C[S+]([O-])c1nc2ccccc2n1S(=O)(=O)c1ccc(OCC(=O)NCCCC(=O)[O-])cc1C(C)C.[Na+] (stereo not drawn) [Compound 11] , the value recorded as its half-life is 14

Input Cc1c(OCC(F)(F)F)ccnc1C[S+]([O-])c1nc2ccccc2n1S(=O)(=O)c1cccc(C(=O)O)c1 (stereo not drawn) [Compound 1] . Output half-life: 12

Looking up COc1ccc(S(=O)(=O)n2c([S+]([O-])Cc3nccc(OCC(F)(F)F)c3C)nc3ccccc32)cc1C(=O)[O-].[Na+] (stereo not drawn) [Compound 3] , I see its half-life listed as 10

====

assay: Stability in plasma at 37° C. (gradient HPLC-UV), rat plasma
Type: in vitro ADME
Experimental: Exemplary test compounds (prodrugs) of the invention were incubated in plasma at 37° C., and the concentration of the compounds and also of the corresponding proton pump inhibitor compounds (PPI) were determined by a gradient HPLC-UV method. […]
Give measured half-life for each item. Keep answers brief.
// note: answer is a bare numeric in h

Reported half-life of Cc1c(OCC(F)(F)F)ccnc1C[S+]([O-])c1nc2ccccc2n1S(=O)(=O)c1ccc(OCC(=O)[O-])cc1.[Na+] (stereo not drawn) : 0.3

For this molecule ( COc1ccc(S(=O)(=O)n2c([S+]([O-])Cc3nccc(OCC(F)(F)F)c3C)nc3ccccc32)cc1C(=O)[O-].[Na+] (stereo not drawn) ), measured half-life is 1.35

half-life recorded for this molecule, Cc1c(OCC(F)(F)F)ccnc1C[S+]([O-])c1nc2ccccc2n1S(=O)(=O)c1ccc(OCC(=O)[O-])c(OCC(=O)[O-])c1.[Na+].[Na+] (stereo not drawn) , is 1.3

Values were extracted from patent US6897227B2.
